- test-name: Lipophilicity, log D of the compound at pH 7.4
- Type: physicochemical
- protocol-conditions: buffer
Could you please report measured logD for the items listed next?
No unit in the answer, please; the number alone is enough.

Q. Please look up its logD: `CCCOC(=O)N1C[C@H](C(=O)Nc2ccc(Cl)cc2)[C@@H](C(=O)Nc2ccc(-n3ccccc3=O)cc2F)C1`
A. 3.06

Q. What do you have for `CC(C)S(=O)(=O)N1C[C@H](C(=O)Nc2ccc(Cl)cc2)[C@@H](C(=O)Nc2ccc(-n3ccccc3=O)cc2F)C1` ?
A. 2.81

Q. What do you have for `O=C(Nc1ccc(Cl)cn1)[C@H]1CNC[C@@H]1C(=O)Nc1ccc(-n2ccccc2=O)cc1F` ?
A. 0.63

Q. What do you have for `O=C(Nc1ccc(Cl)cc1)[C@H]1CN(CC(F)F)C[C@@H]1C(=O)Nc1ccc(-n2ccccc2=O)cc1F` ?
A. 2.69
